- Test system: M14
- method notes: NCI tumour cell line growth inhibition, 48 h
The source made the active and inactive calls. Rule as the data show it: active = GI50 up to about 1.1 µM and inactive = higher.
Pick one and only one: active, inactive

QUERY: Please share the test call associated with COc1cc(/C=C/C(=N\NC(N)=S)c2sc(NNC(C)=O)nc2C)ccc1O .
RESULT: inactive

QUERY: Quick one: CN(CCCCN(C)CCc1ccc(Cl)c(Cl)c1)CCCCN1CCCC1
RESULT: active

QUERY: Now give it for CCOc1ccc(NC(=O)/C(Cc2nc3ccccc3nc2O)=N\O)cc1 too.
RESULT: inactive

QUERY: Then this compound: CCOC(=O)NC(Nc1c(F)c(F)c(F)c(F)c1F)(C(F)(F)F)C(F)(F)F
RESULT: inactive

QUERY: Same lookup for Oc1cc(-c2cccc3ccccc23)nc2ncccc12 , please.
RESULT: active

QUERY: What do you get for CCOC(=O)c1sc2nc(SC)nc3c2c1NCN3C1CC1 ?
RESULT: inactive

---

- Test system: UACC-257
- method notes: NCI tumour cell line growth inhibition, 48 h
Active and inactive are the calls of the source. Rule as the data show it: active = GI50 up to about 1.1 µM and inactive = higher.
Field: GI50. Provide a value for each of the compounds that follow.

QUERY: Field request: GI50 | item: CC(=O)NC1C(OCc2ccccc2)OC(CO)C(O)C1OCC(=O)N[C@@H](C)C(=O)N[C@H](CCC(=O)NCCCCNc1c2ccccc2nc2cccc([N+](=O)[O-])c12)C(N)=O (stereo partly specified)
RESULT: 2.13 µM (inactive)

QUERY: Now consider CCOc1ccncc1[N+](=O)[O-] .
RESULT: > 100 µM (inactive)

QUERY: # iterate: CCCCCCNC(=O)CCN(C(=O)O)S(=O)(=O)c1ccc(NC(=O)c2ccccc2)cc1
RESULT: > 48.9 µM (inactive)

QUERY: Now consider CC(C)c1cc2c(c(O)c1O)[C@@]1(C)CCCC(C)(C)C1=C(O)C2 and answer again.
RESULT: 1.13 µM (inactive)

QUERY: Would you kindly repeat that for CC(=O)O[C@H]1C(=O)[C@@]2(C)[C@H]([C@H](OC(=O)c3ccc([N+](=O)[O-])cc3)[C@]3(O)C[C@H](OC(=O)[C@H](O)[C@@H](NC(=O)c4ccccc4)c4ccccc4)C(C)=C1C3(C)C)[C@]1(OC(C)=O)CO[C@@H]1C[C@@H]2O ?
RESULT: > 25 µM (inactive)

QUERY: What about CC[P+](C#Cc1ccccc1)(c1ccccc1)c1ccccc1 ?
RESULT: 1.21 µM (inactive)

QUERY: Similarly, O=C1C2CCCCC2C(=O)N1n1c(-c2ccccc2)n[nH]c1=O (stereo unspecified) ?
RESULT: > 100 µM (inactive)

QUERY: # repeat for CCOC(=O)c1cnccc1CC1(C#N)c2ccccc2C=CN1C(=O)c1ccccc1 (stereo unspecified)
RESULT: 34.7 µM (inactive)

QUERY: And then CC1=Nc2sc3c(c2C2=NCCN12)CCCC3 , what is it?
RESULT: 20.2 µM (inactive)

QUERY: Record: Cc1ccc(C)c(NC(=O)c2cc(-c3ccc([N+](=O)[O-])cc3)nc(N)n2)c1
RESULT: > 100 µM (inactive)

QUERY: Consider next the compound Cc1c(S(=O)(=O)N/C(=N\O)Nc2ccc(Cl)c(Cl)c2)sc2ccc(Cl)cc12 in the same way.
RESULT: 19.9 µM (inactive)

QUERY: Same question for Cc1ccc2nc(C(=O)O)c(=O)[nH]c2c1 please.
RESULT: > 100 µM (inactive)

QUERY: Let us now turn to C[C@@H]1CC[C@@]2(OC1)O[C@H]1[C@@H](O)[C@H]3[C@@H]4CC[C@H]5C[C@@H](O[C@@H]6O[C@H](CO)[C@H](O[C@@H]7O[C@H](CO)C(O)[C@H](O[C@@H]8OC[C@@H](O)[C@H](O)[C@H]8O)[C@H]7O[C@@H]7O[C@H](CO)[C@H](O)[C@H](O[C@@H]8O[C@H](CO)[C@@H](O)[C@H](O)[C@H]8O)[C@H]7O)[C@H](O)[C@H]6O)[C@H](O)C[C@]5(C)[C@H]4CC[C@]3(C)[C@H]1[C@@H]2C (stereo partly specified) [DIGITONIN]
RESULT: 8.38 µM (inactive)

QUERY: Entry to check: CCCCCCCCCCCC1CCCC(C)N1 (stereo unspecified)
RESULT: 45.8 µM (inactive)

QUERY: Okay, and CCC/C(C)=N/NC(=S)SC.CCC/C(C)=N/NC(=S)SC.[Zn+2] ?
RESULT: 7.46 µM (inactive)

QUERY: Now the compound Cc1ccc2nc(-c3ccc(N)c(Br)c3)sc2c1
RESULT: 20 µM (inactive)

QUERY: Next record, please: C/N=C/N(C)c1c2ccccc2nc2ccccc12
RESULT: > 100 µM (inactive)

QUERY: Note, next up: Cn1c(N)nc2c(nc(OCc3ccccc3)n2C2OC(CO)C(O)C2O)c1=O (stereo unspecified)
RESULT: > 100 µM (inactive)

QUERY: Please answer likewise for C[N+]1(CCCl)CC[N+](C)(CCCl)CC1 (stereo unspecified)
RESULT: > 100 µM (inactive)

QUERY: Would you kindly repeat that for CP1(=O)CCCCC1 ?
RESULT: > 100 µM (inactive)

QUERY: Let us now turn to CN(CCCCN(C)CCc1ccc(Cl)c(Cl)c1)CCCCN1CCCC1
RESULT: 1.63 µM (inactive)

QUERY: Next compound: COC(=O)C1=C(OC(=O)c2ccccc2)C(C(=O)OC)[C@]2(O)[C@@H](C(=O)OC)[C@H]1C[C@@H](c1ccccc1)[C@@H]2C(=O)OC (stereo partly specified)
RESULT: 5.62 µM (inactive)

QUERY: Consider next the compound CC(=O)Nc1cccc(N2C(=O)/C(=C\c3cccc(Oc4ccccc4)c3)S(=O)(=O)C2c2ccccc2)c1 (stereo unspecified) in the same way.
RESULT: > 100 µM (inactive)

QUERY: For CC(C)CC1c2[nH]c3ccccc3c2C[C@H]2C(=O)NC(Cc3c[nH]c4ccccc34)C(=O)N12 (stereo partly specified) then?
RESULT: 14.3 µM (inactive)

QUERY: Next compound: O=C1CC(C(OCc2ccccc2)C(OCc2ccccc2)C(COCc2ccccc2)OCc2ccccc2)CC(=O)N1 (stereo unspecified)
RESULT: > 100 µM (inactive)

QUERY: Similarly, O=C1c2ccccc2S(=O)(=O)c2cc(-c3nn[nH]n3)ccc21 [DOXANTRAZOLE] ?
RESULT: > 100 µM (inactive)

QUERY: Repeat with CN(C)CCNC(=O)c1cccc2nc3c(ccc4ccccc43)nc12
RESULT: 1.74 µM (inactive)

QUERY: Repeat for the following compound: CC1=NN(c2cccc(Cl)c2)C(=N/c2nc3ccccc3s2)/C1=C\c1ccc(Cl)cc1
RESULT: 20.7 µM (inactive)

QUERY: Same question for CN(C)CCNC1=C(Cl)C(=O)c2c(O)ccc(O)c2C1=O please.
RESULT: 1.72 µM (inactive)

QUERY: Please do the same for CC1=C(C(=O)CC(=O)C(=O)Nc2ccccc2)Sc2ccccc2N1 as well.
RESULT: > 100 µM (inactive)

QUERY: What about CCOC(=O)NC(Nc1c(F)c(F)c(F)c(F)c1F)(C(F)(F)F)C(F)(F)F ?
RESULT: > 100 µM (inactive)

QUERY: // query: N/N=C(\CC1OC(=O)c2ccccc21)c1ccco1 (stereo unspecified)
RESULT: > 100 µM (inactive)

QUERY: Entry c1c2c(cc3c1OCO3)-c1cc3ccc4c(c3c[n+]1CC2)OCO4 [COPTISINE CHLORIDE] please
RESULT: 1.95 µM (inactive)

QUERY: Field entry: CS(=O)(=O)OCC(CCl)(CCl)CCl
RESULT: > 100 µM (inactive)

QUERY: Then what about the compound C/C(=N\NS(=O)(=O)c1ccc(C)cc1)C(CN1CCOCC1)C(c1ccccc1)c1c(O)c2ccccc2oc1=O (stereo unspecified) ?
RESULT: > 100 µM (inactive)

QUERY: Same read-out for CCN(CC)CCSc1nc2cccc([N+](=O)[O-])c2[nH]1 ?
RESULT: > 100 µM (inactive)

---

- System: SNB-75
- method notes: NCI tumour cell line growth inhibition, 48 h
Calls of active or inactive are those of the source. Rule as the data show it: active = GI50 up to about 1.1 µM and inactive = higher.
For each record, write down the corresponding GI50.

QUERY: Item CC(C)C1CO[C@]2(C)CCC(=O)N12 (stereo partly drawn) has what recorded GI50?
RESULT: > 100 µM (inactive)

QUERY: Here is the next molecule: O=C1c2ccccc2S(=O)(=O)c2cc(-c3nn[nH]n3)ccc21
RESULT: > 100 µM (inactive)

QUERY: Next record, please: Nn1c(S)nnc1NNC(=O)C(=O)Nc1cc(Cl)c(Cl)cc1Cl
RESULT: 15.5 µM (inactive)

QUERY: What about CC1=Nc2sc3c(c2C2=NCCN12)CCCC3 ?
RESULT: 37.2 µM (inactive)

QUERY: Again, but for N=c1oc2ccccc2cc1-c1nc2ccccc2c(=O)[nH]1
RESULT: 2.72 µM (inactive)

QUERY: Here is the next molecule: O=C(CSc1nnc(-c2ccccn2)s1)N/N=C/c1ccc([N+](=O)[O-])cc1
RESULT: 2.86 µM (inactive)

QUERY: Lookup N#CC(/C(=N/NC(=N)N)C(=O)Nc1ccccc1[N+](=O)[O-])c1nc(-c2ccc([N+](=O)[O-])cc2)cs1 (stereo not drawn)
RESULT: > 100 µM (inactive)

QUERY: What about this molecule? CCCCOC(=O)C1CN2C=CC=NC2=NC1(C(F)(F)F)C(F)(F)F (stereo not drawn)
RESULT: > 100 µM (inactive)

QUERY: Okay, and COCC(=O)OC1CCn2c1nc1c2C(=O)C(C)=C(NC(C)=O)C1=O (stereo not drawn) ?
RESULT: 5.42 µM (inactive)

QUERY: Can you check C[Si](C)(c1ccccc1)[C@H]1CCCC=C1CCNC1c2ccccc2CCc2ccccc21 next?
RESULT: 67.3 µM (inactive)

QUERY: // same read-out, input: CCOc1cc2c(cc1O)C(N)C[C@@H]1[C@@H]2CC[C@]2(C)[C@@H](O)CC[C@@H]12 (stereo partly drawn)
RESULT: 15 µM (inactive)

QUERY: Record: O=c1n(CC2CO2)c(=O)n(CC2CO2)c(=O)n1CC1CO1 (stereo not drawn)
RESULT: 25.1 µM (inactive)

QUERY: Same lookup for OCC(O)C(O)C(O)c1nn(-c2ccccc2)c2nc3cc(Cl)c(Cl)cc3nc12 (stereo not drawn) , please.
RESULT: 20.3 µM (inactive)
